// Kd lookup, one value per entry
# study_system: T1, recombinant HMG1 produced in E. coli as a calmodulin binding protein (CBP) fusion (human)
# T1 construct: also called rHMG1; rHMGB1
# T1 sequence (P09429 whole entry, the tested form may be a part): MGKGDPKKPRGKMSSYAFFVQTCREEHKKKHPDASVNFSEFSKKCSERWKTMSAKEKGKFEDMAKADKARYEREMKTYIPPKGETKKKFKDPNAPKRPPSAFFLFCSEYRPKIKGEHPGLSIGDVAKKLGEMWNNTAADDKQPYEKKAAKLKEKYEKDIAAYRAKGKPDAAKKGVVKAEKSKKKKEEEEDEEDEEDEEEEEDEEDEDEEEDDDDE
# experimental_details: BIAcore 3000, mAb amine-coupled to CM5, HMG1 injected, steady-state model

# binder, Kd [nM]
records = [
    ("human anti-HMG1 antibody G12 (antibody, IgG1, V domains shown, full length IgG1 made from a human Fab phage clone) VH: EVQLLESGGGLVQPGGSLRLSCAASGFTFSYYMMTWVRQAPGKGLEWVSSISPSGGYTIYADSAKGRFTISRDNSKNTLYLQMNSLRAEDTAVYYCARALSTGSFWDYWGQGTLVTVSS VL: DIQMTQSPGTLSLSPGERATLSCRASESLTSTYVAWYQHKPGQAPRLLIHGGSTRATGIPVRFSGSGSGTDFTLTIATLEPEDFAVYYCQQYGSSPYTFGQGTKLEIK", 73),
    ("human anti-HMG1 antibody G2 (antibody, IgG1, V domains shown, full length IgG1 made from a human Fab phage clone) VH: EVQLLESGGGLVQPGGSLRLSCAASGFTFSWYKMQWVRQAPGKGLEWVSGISPSGGSTAYADSVKGRFTISRDNSKNTLYLQMNSLRAEDTAVYYCAKMGLFNTGNSYVDYWGQGTLVTVSS VL: AQSELTQPPSVSEAPGQRVTISCSGSTSNIGNNAVIWYQQLPGKAPKLLIYYDDLLPSGVSDRFSGSKSGTSGSLAISGLQSEDEADYYCASWDDNLNGPLFGGGTKLTVL", 101),
    ("human anti-HMG1 antibody G20 (antibody, IgG1, V domains shown, full length IgG1 made from a human Fab phage clone) VH: EVQLLESGGGLVQPGGSLRLSCAASGFTFSWYDMFWVRQAPGKGLEWVSWISPSGGYTKYADSVKGRFTISRDNSKNTLYLQMNSLRAEDTAMYYCARSGLDYYDSSGYLDAFDIWGQGTMVTVSS VL: DIQMTQSPSSVSASVGDRVTITCRASQDVSIWLAWYQQKPGKAPKLLIFGASRLQSGVPSRFSGSRSGADFTLTIDSVQPEDFASYYCQQADSFPLTFGGGTKVEIK", 114),
    ("human anti-HMG1 antibody S16 (antibody, IgG1, V domains shown, full length IgG1 made from a human Fab phage clone; also called ATCC PTA-6259) VH: EVQLLESGGGLVQPGGSLRLSCAASGFTFSWYSMLWVRQAPGKGLEWVSYISPSGGFTNYADSVKGRFTISRDNSKNTLYLQMNSLRAEDTAVYYCARWDYNSGWYYDHWGQGTLVTVSS VL: DIQMTQSPDTLSLSPGERATLSCRASQSVNSRNLAWYQQKPGQAPRLLIYGASTRATGIPDRFSGSVSGTEFTLTISSLQPDDFATYYCQQYNSYFTFGQGTKLEIK", 23),
    ("human anti-HMG1 antibody S14 (antibody, IgG1, V domains shown, full length IgG1 made from a human Fab phage clone) VH: EVQLLESGGGLVQPGGSLRLSCAASGFTFSWYETGWVRQAPGKGLEWVSGISPSGGYTQYADSVKGRFTISRDNSKNTLYLQMNSLRAEDTAVYYCARSGVGATKIFDYWGQGTLVTVSS VL: DIQMTQSPSSLSASVGDRVTIICRANERINTYLNWYQQKPGKAPKLLISGTSSLESGVPSRFSGSGSGTEFTLSISSLQPEDFASYYCQQSYSSPYTFGQGTNLEIR", 205),
]
